molecular target: caspase-like activity of the 20S proteasome (Oryctolagus cuniculus, UniProt A0A5F9DQW2); construct: In Vitro Purified Rabbit Muscle 20S Proteasome Activity Assays; from tissue; host or cells: rabbit muscle; test: In vitro purified rabbit muscle 20S proteasome assay, caspase-like (C-L) activity, Z-LLEAMC substrate; format: biochemical
Sequence (A0A5F9DQW2 1-212): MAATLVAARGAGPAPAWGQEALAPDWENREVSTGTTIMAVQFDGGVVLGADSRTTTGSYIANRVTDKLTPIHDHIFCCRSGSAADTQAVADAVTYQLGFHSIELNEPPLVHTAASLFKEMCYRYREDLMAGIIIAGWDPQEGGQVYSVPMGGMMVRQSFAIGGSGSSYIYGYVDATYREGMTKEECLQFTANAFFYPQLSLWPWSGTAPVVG
Observable: pIC50
In simple prose, pIC50 is minus the logarithm base ten of a concentration in moles per litre.

* CC(=O)OCC[C@H]1C(=O)N[C@@]2([C@@H](O)[C@@H]3C=CCCC3)C(=O)O[C@@]12C | 6.01
* C[C@@]12OC(=O)[C@]1([C@@H](O)[C@@H]1C=CCCC1)NC(=O)[C@@H]2CCOS(=O)(=O)c1ccc(-c2ccccc2)cc1 | 7.00
* C[C@@]12OC(=O)[C@]1([C@@H](O)[C@@H]1C=CCCC1)NC(=O)[C@@H]2CCOS(C)(=O)=O | 6.06
* C[C@@]12OC(=O)[C@]1([C@@H](O)[C@@H]1C=CCCC1)NC(=O)[C@@H]2CCOS(=O)(=O)c1ccc(Oc2ccccc2)cc1 | 7.07

Can you share its pIC50? I mean this molecule: Cc1ccc(S(=O)(=O)OCC[C@H]2C(=O)N[C@@]3([C@@H](O)[C@@H]4C=CCCC4)C(=O)O[C@@]23C)cc1 6.90
